# systemTested: IDH1 wt/IDH1 R132C heterodimer (Homo sapiens (Human), UniProt O75874, R132C)
# Sequence (O75874 whole entry R132C): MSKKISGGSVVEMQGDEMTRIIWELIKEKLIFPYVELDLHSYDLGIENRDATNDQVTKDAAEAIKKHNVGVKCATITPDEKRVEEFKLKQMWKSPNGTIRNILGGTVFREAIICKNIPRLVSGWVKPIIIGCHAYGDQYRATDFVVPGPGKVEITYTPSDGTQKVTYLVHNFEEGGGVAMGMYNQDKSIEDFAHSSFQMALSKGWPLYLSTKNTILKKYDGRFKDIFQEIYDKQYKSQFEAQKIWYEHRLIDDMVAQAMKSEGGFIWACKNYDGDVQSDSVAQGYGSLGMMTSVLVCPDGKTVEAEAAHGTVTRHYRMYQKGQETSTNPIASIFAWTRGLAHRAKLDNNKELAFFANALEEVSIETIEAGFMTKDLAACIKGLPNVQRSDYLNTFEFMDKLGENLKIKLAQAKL
# Sequence (O75874 whole entry, stated change not applied): as the sequence (O75874 whole entry R132C) above, with C132R counted along it
# assay: In vitro assay for IDH1m R132C inhibitors, IDH1 wt/IDH1 R132C heterodimer, NADPH depletion (diaphorase/resazurin)
# conditionParameters: NADPH/NADP
attributeMeasured: IC50

molecule=CC(C)(C)Nc1nc(Nc2ccnc(C(C)(F)F)c2)nc(-c2nccc(C(F)(F)F)n2)n1 valueobserved="≥ 1000 nM"
molecule=N#CC1(c2cc(Nc3nc(NC4CCC(F)(F)CC4)nc(-c4cccc(C(F)(F)F)n4)n3)ccn2)CC1 valueobserved="< 50 nM"
molecule="CC(CC#N)Nc1nc(N[C@H](C)C2CC2)nc(-c2cccc(C(F)(F)F)n2)n1 (some centres unmarked)" valueobserved="< 50 nM"
molecule="FC1(F)CCC(Nc2nc(NC3CCC(F)(F)C3)nc(-c3cccc(OC(F)(F)F)n3)n2)C1 (centres unmarked)" valueobserved="100 to 1000 nM"
molecule=FC1(F)CC2(CC(Nc3nc(NC4CC5(C4)CC(F)(F)C5)nc(-c4cccc(Cl)n4)n3)C2)C1 valueobserved="100 to 1000 nM"
molecule="CC(COC(C)C)Nc1nc(N[C@H](C)C2CC2)nc(-c2cccc(C(F)(F)F)n2)n1 (some centres unmarked)" valueobserved="100 to 1000 nM"

Record request: IC50 value, item CC(C)(C#N)CNc1nc(Nc2ccnc(C(C)(F)F)c2)nc(-c2cccc(C(F)(F)F)n2)n1
100 to 1000 nM

Record request: IC50 value, item CCC(Nc1nc(NC(CC)C2CC2)nc(-c2cccc(Cl)n2)n1)C1CC1 (centres unmarked)
< 50 nM

* * *

# maps each entry to its pIC50
# Test system: U87MG pLVX-IDH2 R140Q-neo cells
# assay: U87MG pLVX-IDH2 R140Q-neo cell based assay, 2-HG by LC-MS
# conditionParameters: Homo sapiens, U-87 MG
pIC50: −log10 of the molar value.

Reference set (3 entries):
givensmiles=N#Cc1cc(F)cc(Nc2nc(NC3CC(F)(F)C3)nc(-c3nc(C(F)(F)F)cs3)n2)c1 valueobserved="> 7.30"
givensmiles=CC[C@H](Nc1nc(N[C@H](CC)C(F)(F)F)nc(-c2cccc(Cl)n2)n1)C(F)(F)F valueobserved="6.00 to 7.00"
givensmiles=C[C@@H](Nc1nc(Nc2ccnc(C#N)c2)nc(-n2ccc(C(F)(F)F)n2)n1)C(F)(F)F valueobserved="> 7.30"

Alright, here's another compound for you.
Record request: pIC50 value, item FC(F)(F)c1cc(Nc2nc(NCC3CC3)nc(-c3cccc(Cl)n3)n2)ccn1
> 7.30

* * *

# maps each entry to its pIC50
# systemTested: IDH1 wt/IDH1 R132H heterodimer (Homo sapiens (Human), UniProt O75874, R132H)
# Sequence (O75874 whole entry R132H): as the sequence (O75874 whole entry R132C) above, with C132H counted along it
# Sequence (O75874 whole entry, stated change not applied): as the sequence (O75874 whole entry R132C) above, with C132R counted along it
# assay: In vitro assay for IDH1m R132H inhibitors, IDH1 wt/IDH1 R132H heterodimer, NADPH depletion (diaphorase/resazurin)
# Format: biochemical
# conditionParameters: IDH1 wt/R132H heterodimer, NADPH/NADP, not saturated; read-out: IDH1 wt/R132H NADPH/NADP IC50 not saturated
pIC50: −log10 of the molar value.

Reference set (5 entries):
compound="C[C@@H](Nc1nc(N[C@H](C)C2CC2)nc(-c2ccccc2Cl)n1)C1CC1 [Compound 94]" valueobserved="< 6.00"
compound="N#CC1(c2cc(Nc3nc(N[C@H]4CCC(F)(F)C4)nc(-c4cccc(C(F)(F)F)n4)n3)ccn2)CC1 [Compound 133]" valueobserved="> 7.30"
compound="Fc1cc(F)cc(Nc2nc(NC3CCC(F)(F)CC3)nc(-c3cccc(C(F)(F)F)n3)n2)c1 [Compound 125]" valueobserved="> 7.30"
compound="FC1(F)CC(Nc2nc(NC3CC(F)(F)C3)nc(-c3cncc(C(F)(F)F)n3)n2)C1 [Compound 161]" valueobserved="> 7.30"
compound="CC(Nc1nc(NC(C)C(F)(F)F)nc(-n2ccc(C(F)(F)F)n2)n1)C(F)(F)F (stereo not shown) [Compound 141]" valueobserved="> 7.30"

Alright, here's another compound for you.
Record request: pIC50 value, item FC1(F)CCC(Nc2cc(NC3CCC(F)(F)CC3)nc(-c3cncc(C(F)(F)F)n3)n2)CC1 [Compound 421]
6.00 to 7.00

* * *

# Tested on: U87MG pLVX-IDH2 R140Q-neo cells
# assay: U87MG pLVX-IDH2 R140Q-neo cell based assay, 2-HG by LC-MS
# conditionParameters: Homo sapiens, U-87 MG
attributeMeasured: IC50

Record request: IC50 value, item FC1(F)CCC(Nc2nc(NC3CCN(c4ncccn4)C3)nc(-c3cccc(C(F)(F)F)n3)n2)C1 (stereo not shown)
100 to 1000 nM

Record request: IC50 value, item N#CC1(c2cc(Nc3nc(N[C@@H]4CCC(F)(F)C4)nc(-n4ccc(C(F)(F)F)n4)n3)ccn2)CC1
< 50 nM

Record request: IC50 value, item FC1(F)CCC(Nc2nc(NC3CCC(F)(F)CC3)nc(-c3cncc(C(F)(F)F)n3)n2)CC1
< 50 nM

Record request: IC50 value, item FC(F)c1ccnc(-c2nc(NC3CC(F)(F)C3)nc(NC3CC(F)(F)C3)n2)n1
50 to 100 nM

* * *

# systemTested: IDH1-R132H homodimer enzyme (Homo sapiens (Human), UniProt O75874, R132H)
# Sequence (O75874 whole entry R132H): as the sequence (O75874 whole entry R132C) above, with C132H counted along it
# assay: In vitro assay IDH1-R132H homodimer, NADPH depletion assay with NADPH/NADP preincubation
# conditionParameters: 5 μM NADPH and 37.5 μM NADP
# Method: The following describes the experimental procedures that can be used to obtain data on columns 3 and 5 of Table 5. A test compound is prepared as 10 mM stock in DMSO and diluted to 50× final concentration in DMSO, for a 50 μl reaction mixture. IDH enzyme activity converting alpha-ketoglutarate to 2-hydroxyglutaric acid is measured using a NADPH depletion assay. […]
pIC50: −log10 of the molar value.
attributeMeasured: pIC50

Reference set (5 entries):
molecule=Clc1cccc(-c2nc(NC(C3CC3)C3CC3)nc(NC(C3CC3)C3CC3)n2)n1 valueobserved="7.00 to 7.30"
molecule="FC1(F)CCC(Nc2nc(Nc3ccnc(C(F)(F)F)c3)nc(-n3ccc(C(F)(F)F)n3)n2)C1 (stereo not drawn)" valueobserved="> 7.30"
molecule="FC1(F)CCC(Nc2nc(NC3CN(c4cccnc4)C3)nc(-c3cccc(C(F)(F)F)n3)n2)C1 (stereo not drawn)" valueobserved="< 6.00"
molecule=N#Cc1cc(F)cc(Nc2nc(NC3CC(F)(F)C3)nc(-n3ccc(C(F)(F)F)n3)n2)c1 valueobserved="> 7.30"
molecule=FC1(F)CCC(Nc2nc(NC3CC(F)(F)C3)nc(-c3cccc(C(F)(F)F)n3)n2)CC1 valueobserved="> 7.30"

Alright, here's another molecule for you.
Provide the documented pIC50 with IDH1-R132H homodimer enzyme (Homo sapiens (Human), UniProt O75874, R132H) as the system for FC1(F)CCC(Nc2nc(Nc3ccnc(-c4ccccc4)c3)nc(-c3cccc(C(F)(F)F)n3)n2)CC1
7.00 to 7.30

* * *

# systemTested: IDH2 R140Q (Homo sapiens (Human), UniProt P48735, R140Q)
# Sequence (P48735 40-452 R140Q): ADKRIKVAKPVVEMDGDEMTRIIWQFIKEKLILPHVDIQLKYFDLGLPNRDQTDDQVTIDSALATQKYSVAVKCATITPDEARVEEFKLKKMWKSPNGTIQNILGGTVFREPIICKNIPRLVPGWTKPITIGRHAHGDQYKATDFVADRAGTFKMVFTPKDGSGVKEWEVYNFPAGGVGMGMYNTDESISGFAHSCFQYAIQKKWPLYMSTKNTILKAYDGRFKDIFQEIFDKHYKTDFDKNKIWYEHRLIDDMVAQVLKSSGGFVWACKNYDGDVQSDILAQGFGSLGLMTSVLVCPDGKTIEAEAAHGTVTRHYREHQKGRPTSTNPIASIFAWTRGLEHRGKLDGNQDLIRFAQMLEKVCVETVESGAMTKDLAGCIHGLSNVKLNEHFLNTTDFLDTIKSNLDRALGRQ
# assay: In vitro assay for IDH2m R140Q inhibitors, cofactor depletion assay
# Format: biochemical
# conditionParameters: IDH2 R140Q enzyme
# maps each entry to its IC50

Reference set (5 entries):
compound=FC(F)(F)c1cc(Nc2nc(NCC3CC3)nc(-c3cccc(Cl)n3)n2)ccn1 valueobserved="< 50 nM"
compound="N#Cc1cc(F)cc(Nc2nc(NC3CCC(F)(F)C3)nc(-c3nc(C(F)(F)F)cs3)n2)c1 (stereo not shown)" valueobserved="< 50 nM"
compound="CC(F)(F)c1cccc(-c2nc(NC3CCC(F)(F)C3)nc(NC3CCC(F)(F)C3)n2)n1 (stereo not shown)" valueobserved="< 50 nM"
compound="N#CC1(c2cc(Nc3nc(NCC4CC4(F)F)nc(-c4cccc(C(F)(F)F)n4)n3)ccn2)CC1 (stereo not shown)" valueobserved="< 50 nM"
compound="FC1(F)CCC(Nc2nc(NC3Cc4ccccc4C3)nc(-c3cccc(C(F)(F)F)n3)n2)C1 (stereo not shown)" valueobserved="< 50 nM"

Alright, here's another compound for you.
Provide the documented IC50 with IDH2 R140Q (Homo sapiens (Human), UniProt P48735, R140Q) as the system for C[C@@H](Nc1nc(NCc2ccccc2)nc(-c2cccc(C(F)(F)F)n2)n1)C1CC1
< 50 nM

* * *

# maps each entry to its pIC50
# systemTested: IDH1 wt/IDH1 R132H heterodimer (Homo sapiens (Human), UniProt O75874, R132H)
# assay: In vitro assay for IDH1m R132H inhibitors, IDH1 wt/IDH1 R132H heterodimer, NADPH depletion (diaphorase/resazurin)
# Assay type: biochemical
# conditionParameters: IDH1 wt/R132H heterodimer, NADPH/NADP, not saturated; read-out: IDH1 wt/R132H NADPH/NADP IC50 not saturated
pIC50: −log10 of the molar value.

Reference set (2 entries):
compound="N#Cc1cc(F)cc(Nc2nc(NCC3CC3)nc(-c3cccc(C(F)(F)F)n3)n2)c1 [Compound 175]" systemtested="IDH1 wt/IDH1 R132H heterodimer (Homo sapiens (Human), UniProt O75874, R132H)" attributemeasured=pIC50 valueobserved="> 7.30"
compound="COC(=O)CCNc1nc(N[C@H](C)C2CC2)nc(-c2cccc(C(F)(F)F)n2)n1 [Compound 286]" systemtested="IDH1 wt/IDH1 R132H heterodimer (Homo sapiens (Human), UniProt O75874, R132H)" attributemeasured=pIC50 valueobserved="6.00 to 7.00"

Provide the documented pIC50 with IDH1 wt/IDH1 R132H heterodimer (Homo sapiens (Human), UniProt O75874, R132H) as the system for CC(CN1CCCCC1)Nc1nc(N[C@H](C)C2CC2)nc(-c2cccc(C(F)(F)F)n2)n1 (stereo partly shown) [Compound 331]
< 6.00

Provide the documented pIC50 with IDH1 wt/IDH1 R132H heterodimer (Homo sapiens (Human), UniProt O75874, R132H) as the system for Fc1cc(F)cc(Nc2nc(NC3CCC(F)(F)C3)nc(-n3ccc(C(F)(F)F)n3)n2)c1 (stereo not shown) [Compound 108]
> 7.30

Provide the documented pIC50 with IDH1 wt/IDH1 R132H heterodimer (Homo sapiens (Human), UniProt O75874, R132H) as the system for FC1(F)CCC(Nc2nc(NC3CCC(F)(F)CC3)nc(-c3cc(C(F)(F)F)ccn3)n2)CC1 [Compound 318]
< 6.00

Hey, just so you know, these numbers are from patent US10028961B2.
